Cited source: patent US5880106A

# experiment notes: Solution stability of didanosine as a function of pH (stomach degradation model, Acid Neutralization Rate Test)
# Assay type: physicochemical
# condition context: water with hcl; pH 5, 37° C., 1/2 hour
recorded endpoint: degraded at 0.5 h

compound | endpoint value
OC[C@@H]1CC[C@H](n2cnc3c(O)ncnc32)O1 [Didanosine, 2',3'-Dideoxyinosine] | < 4%
